STUDY_TARGET: Prostaglandin E synthase (Homo sapiens) (UniProt O14684)
Sequence (O14684 whole entry, looked up): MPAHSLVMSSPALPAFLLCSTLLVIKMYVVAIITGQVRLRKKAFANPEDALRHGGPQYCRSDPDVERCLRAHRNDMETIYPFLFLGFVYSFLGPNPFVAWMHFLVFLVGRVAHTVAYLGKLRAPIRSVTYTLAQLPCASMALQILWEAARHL
ASSAY_OVERVIEW: Inhibition of mPGES1 in IL-1beta stimulated human A549 cell microsomal membranes assessed as reduction in PGE2 synthase activity after 15 mins using PGH2 substrate by RP-HPLC method
METRIC_NAME: pIC50
Lab note — pIC50 values are minus log10 of concentrations in M.

// query For CCCCCCCCC1=C(O)C(=O)C=C(O)C1=O , what is its reported pIC50?
// result 6.10

// query For CCCCCCCCCCC1=C(O)C(=O)C=C(O)C1=O , what is its reported pIC50?
// result 6.00

// query For CCCCCCCCCCCCCC1=C(OC)C(=O)C=C(OC)C1=O , what is its reported pIC50?
// result 5.74

// query For CCCCCCCCCCCCCCCC1=C(O)C(=O)C=C(OC)C1=O , what is its reported pIC50?
// result 5.03

// query For CCCCCCCCCCCCC1=C(OC)C(=O)C=C(OC)C1=O , what is its reported pIC50?
// result 5.33

// query For CCCCCCCCCCCCCCCC1=C(OC)C(=O)C=C(OC)C1=O , what is its reported pIC50?
// result 5.14

// query For CCCCCCCCCCCCCC1=C(O)C(=O)C=C(O)C1=O [CHEBI:8779] , what is its reported pIC50?
// result 6.05

// query For CCCCCCCCCCCCCC1=C(O)C(=O)C=C(OC)C1=O [Sorgoleone-364] , what is its reported pIC50?
// result 5.21

// query For CCCCCCCCCCCCC1=C(O)C(=O)C=C(OC)C1=O , what is its reported pIC50?
// result 5.24

// query For CCCCCCCCCCCCCCC1=C(OC)C(=O)C=C(OC)C1=O , what is its reported pIC50?
// result 5.36
